SETUP CONDITIONS: in dimethyl carbonate, 308.15 K
ENDPOINT LABEL: solubility (mole fraction)
Hey, just send me the number, nothing else.

Give its solubility (mole fraction) value. Item: O=C(O)CC[C@H](NC(=O)OCC1c2ccccc2-c2ccccc21)C(=O)O 0.00108

----------
SETUP CONDITIONS: in acetone, 308.15 K
ENDPOINT LABEL: solubility (mole fraction)
Lab note: jot down the number only; don't add units.

Any idea what its solubility (mole fraction) is? The molecule is O=C(O)CC[C@H](NC(=O)OCC1c2ccccc2-c2ccccc21)C(=O)O 0.0342

----------
SETUP CONDITIONS: in ethyl acetate, 313.15 K
ENDPOINT LABEL: solubility (mole fraction)
API doc: respond with a numeric literal and nothing else, no unit.

Which measured solubility (mole fraction) value corresponds to O=C(O)CC[C@H](NC(=O)OCC1c2ccccc2-c2ccccc21)C(=O)O ? 0.00451

----------
SETUP CONDITIONS: in ethanol, 323.15 K
ENDPOINT LABEL: solubility (mole fraction)
Just the number, please, no unit after it.

Item under review: O=C(O)CC[C@H](NC(=O)OCC1c2ccccc2-c2ccccc21)C(=O)O . Reported solubility (mole fraction)? 0.0598

----------
SETUP CONDITIONS: in methanol, 323.15 K
ENDPOINT LABEL: solubility (mole fraction)

Consider the compound shown here: O=C(O)CC[C@H](NC(=O)OCC1c2ccccc2-c2ccccc21)C(=O)O What is its recorded solubility (mole fraction)? 0.0611

----------
SETUP CONDITIONS: in n-propanol, 288.15 K
ENDPOINT LABEL: solubility (mole fraction)
Respond numerically, and do not add a unit to the figure.

Quick check: solubility (mole fraction) of O=C(O)CC[C@H](NC(=O)OCC1c2ccccc2-c2ccccc21)C(=O)O ? 0.0146

----------
SETUP CONDITIONS: in n-butanol, 298.15 K
ENDPOINT LABEL: solubility (mole fraction)
The answer should be a number; do not append a unit.

// solubility (mole fraction) lookup, key: O=C(O)CC[C@H](NC(=O)OCC1c2ccccc2-c2ccccc21)C(=O)O 0.0114

----------
SETUP CONDITIONS: in n-pentanol, 298.15 K
ENDPOINT LABEL: solubility (mole fraction)

Entry O=C(O)CC[C@H](NC(=O)OCC1c2ccccc2-c2ccccc21)C(=O)O has what solubility (mole fraction)? 0.00993

----------
SETUP CONDITIONS: in 2-butanone, 313.15 K
ENDPOINT LABEL: solubility (mole fraction)
Respond numerically, and do not add a unit to the figure.

# get_value(readout='solubility (mole fraction)', item= O=C(O)CC[C@H](NC(=O)OCC1c2ccccc2-c2ccccc21)C(=O)O ) 0.0157

----------
SETUP CONDITIONS: in isopropanol, 323.15 K
ENDPOINT LABEL: solubility (mole fraction)
// response body must contain only the number

Item O=C(O)CC[C@H](NC(=O)OCC1c2ccccc2-c2ccccc21)C(=O)O has what recorded solubility (mole fraction)? 0.0351

----------
SETUP CONDITIONS: in n-butanol, 318.15 K
ENDPOINT LABEL: solubility (mole fraction)
# print the numeric value only

Look up solubility (mole fraction) for this compound: O=C(O)CC[C@H](NC(=O)OCC1c2ccccc2-c2ccccc21)C(=O)O 0.0173

----------
SETUP CONDITIONS: in methanol, 298.15 K
ENDPOINT LABEL: solubility (mole fraction)
The answer should be a number; do not append a unit.

What value of solubility (mole fraction) has been reported for the following compound? O=C(O)CC[C@H](NC(=O)OCC1c2ccccc2-c2ccccc21)C(=O)O 0.0325

----------
SETUP CONDITIONS: in acetonitrile, 318.15 K
ENDPOINT LABEL: solubility (mole fraction)

Which solubility (mole fraction) is listed for O=C(O)CC[C@H](NC(=O)OCC1c2ccccc2-c2ccccc21)C(=O)O ? 0.00194

----------
SETUP CONDITIONS: in isopropanol, 308.15 K
ENDPOINT LABEL: solubility (mole fraction)
Answer field: number only, no words.

Given O=C(O)CC[C@H](NC(=O)OCC1c2ccccc2-c2ccccc21)C(=O)O , state its recorded solubility (mole fraction). 0.0238

----------
SETUP CONDITIONS: in n-propyl acetate, 293.15 K
ENDPOINT LABEL: solubility (mole fraction)
Output spec: single numeric token, no unit.

Look up solubility (mole fraction) for this compound: O=C(O)CC[C@H](NC(=O)OCC1c2ccccc2-c2ccccc21)C(=O)O 0.00192

----------
SETUP CONDITIONS: in n-butanol, 303.15 K
ENDPOINT LABEL: solubility (mole fraction)
A bare number is all that is needed in reply.

May I ask what solubility (mole fraction) has been recorded for O=C(O)CC[C@H](NC(=O)OCC1c2ccccc2-c2ccccc21)C(=O)O ? 0.0127

----------
SETUP CONDITIONS: in isopropanol, 288.15 K
ENDPOINT LABEL: solubility (mole fraction)
Could you keep your reply to the number by itself?

# get_value(readout='solubility (mole fraction)', item= O=C(O)CC[C@H](NC(=O)OCC1c2ccccc2-c2ccccc21)C(=O)O ) 0.0142

----------
SETUP CONDITIONS: in methyl acetate, 283.15 K
ENDPOINT LABEL: solubility (mole fraction)
The response must contain the number and no unit.

What value of solubility (mole fraction) has been reported for the following molecule? O=C(O)CC[C@H](NC(=O)OCC1c2ccccc2-c2ccccc21)C(=O)O 0.00319

----------
SETUP CONDITIONS: in isopropanol, 318.15 K
ENDPOINT LABEL: solubility (mole fraction)
Could you keep your reply to the number by itself?

Looking for the measured solubility (mole fraction) of O=C(O)CC[C@H](NC(=O)OCC1c2ccccc2-c2ccccc21)C(=O)O , can you help? 0.0302

----------
SETUP CONDITIONS: in isopropanol, 303.15 K
ENDPOINT LABEL: solubility (mole fraction)

Which measured solubility (mole fraction) value corresponds to O=C(O)CC[C@H](NC(=O)OCC1c2ccccc2-c2ccccc21)C(=O)O ? 0.0199

----------
SETUP CONDITIONS: in acetone, 303.15 K
ENDPOINT LABEL: solubility (mole fraction)
Format: numeric value only, no unit, no commentary.

Value lookup for solubility (mole fraction); key = O=C(O)CC[C@H](NC(=O)OCC1c2ccccc2-c2ccccc21)C(=O)O 0.0323

----------
SETUP CONDITIONS: in n-propyl acetate, 303.15 K
ENDPOINT LABEL: solubility (mole fraction)
# respond with the number and nothing more

Value lookup for solubility (mole fraction); key = O=C(O)CC[C@H](NC(=O)OCC1c2ccccc2-c2ccccc21)C(=O)O 0.00232

----------
SETUP CONDITIONS: in dimethyl carbonate, 303.15 K
ENDPOINT LABEL: solubility (mole fraction)
// return a plain number; no unit text

What does the data say about its solubility (mole fraction)? Entry: O=C(O)CC[C@H](NC(=O)OCC1c2ccccc2-c2ccccc21)C(=O)O 0.000911

----------
SETUP CONDITIONS: in ethyl acetate, 308.15 K
ENDPOINT LABEL: solubility (mole fraction)
Answer with a bare number; do not write a unit.

Report solubility (mole fraction) for O=C(O)CC[C@H](NC(=O)OCC1c2ccccc2-c2ccccc21)C(=O)O please. 0.00391

----------
SETUP CONDITIONS: in n-propyl acetate, 283.15 K
ENDPOINT LABEL: solubility (mole fraction)

Field request: solubility (mole fraction) | item: O=C(O)CC[C@H](NC(=O)OCC1c2ccccc2-c2ccccc21)C(=O)O 0.0016

----------
SETUP CONDITIONS: in acetonitrile, 283.15 K
ENDPOINT LABEL: solubility (mole fraction)
Please reply with the value in numeric form only.

Look at this compound and give its reported solubility (mole fraction). O=C(O)CC[C@H](NC(=O)OCC1c2ccccc2-c2ccccc21)C(=O)O 0.000662

----------
SETUP CONDITIONS: in 2-butanone, 308.15 K
ENDPOINT LABEL: solubility (mole fraction)
Just the number, please.

Report solubility (mole fraction) for O=C(O)CC[C@H](NC(=O)OCC1c2ccccc2-c2ccccc21)C(=O)O please. 0.0143

----------
SETUP CONDITIONS: in 2-butanone, 283.15 K
ENDPOINT LABEL: solubility (mole fraction)
Please reply with the value in numeric form only.

Would you mind telling me what solubility (mole fraction) value was observed for O=C(O)CC[C@H](NC(=O)OCC1c2ccccc2-c2ccccc21)C(=O)O ? 0.0112

----------
SETUP CONDITIONS: in ethyl acetate, 318.15 K
ENDPOINT LABEL: solubility (mole fraction)

Record request: solubility (mole fraction) value, item O=C(O)CC[C@H](NC(=O)OCC1c2ccccc2-c2ccccc21)C(=O)O 0.00498

----------
SETUP CONDITIONS: in n-butanol, 313.15 K
ENDPOINT LABEL: solubility (mole fraction)
Please give the numeric answer without any surrounding text.

Suppose we examine the compound O=C(O)CC[C@H](NC(=O)OCC1c2ccccc2-c2ccccc21)C(=O)O ; what solubility (mole fraction) value has been reported? 0.016
